- PROTOCOL: protein stability index of a GFP-peptide fusion (yeast GPS) (PSI 1-4); higher = more stable; sorted into four equal gates, so the index is relative within each strain
- MEASUREMENT_CONTEXT: pdr5∆
protein stability index by entry:
Note: the reply should be a number with no unit written.

These solved cases illustrate the format of a correct answer.
GHLPEVSSKCNDIHLRF [ECM29] :: 2.92
KDALSNSILSVRDPWSI [SRB2] :: 3.41
NPEEVEQVAEEAAAAEE [RPS0B] :: 3.03
PEIPLVVSTDLESIQKT [RPL4A] :: 3.05
QLKMVNERELNVFARLS [RPC82] :: 2

Given item LQEKEQLYFKKKVNYKV [ISW2] , the value recorded as its protein stability index is 3.23

Given item AGKQLEDGRTLSDYNIQ [RPS31] , the value recorded as its protein stability index is 2.94

Given item LKKDIESLRGILHVRAQ [SRP72] , the value recorded as its protein stability index is 2.39

Given item DFPELKPYKQVKQIAPA [FAS2] , the value recorded as its protein stability index is 2.46

Given item LQELIVNGPNVHPGANY [RPO31] , the value recorded as its protein stability index is 2.99

Given item NFEAVFERLVPRGTAKL [SMC3] , the value recorded as its protein stability index is 2.84

Given item PSYYYYVDPETTYTYQQ [ROX3] , the value recorded as its protein stability index is 3.09

Given item KLTRELEKKFQDRHVIF [RPS7A] , the value recorded as its protein stability index is 3.5

Given item RVRAESLHSNSFSLTVS [YJL039C/NUP192] , the value recorded as its protein stability index is 1.76

Given item KIINTHSDMASKMYNTD [PRP8] , the value recorded as its protein stability index is 2.76

Given item AQKNTQSYGGRPYGVGL [PRE5] , the value recorded as its protein stability index is 3.43

Given item CSGSGMGGVSALRGMFK [FAS2] , the value recorded as its protein stability index is 3.68

Given item IVTKDGVRKEFYELKRD [PRE7] , the value recorded as its protein stability index is 2.16
